The following binders are listed with their measured IC50, inhibition of rHMG1 stimulated IL-6 release from human PBMCs values.
Target: T1, recombinant HMG1 produced in E. coli as calmodulin binding protein (CBP) fusion (human)
T1 chain: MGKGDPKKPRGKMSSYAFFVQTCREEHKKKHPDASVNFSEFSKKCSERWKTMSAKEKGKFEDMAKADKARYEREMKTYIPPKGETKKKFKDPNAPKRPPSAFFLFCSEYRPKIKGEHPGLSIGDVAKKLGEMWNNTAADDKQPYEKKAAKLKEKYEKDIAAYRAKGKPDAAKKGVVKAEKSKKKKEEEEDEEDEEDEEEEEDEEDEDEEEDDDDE
Test: cell-based or functional assay
A complete answer gives the number followed by the unit.

Past entries and their recorded results:
INSERT INTO results (binder, endpoint_value) VALUES
  ('anti-HMG1 antibody G35 (antibody, V domains shown) VH: EVQLLESGGGLVQPGGSLRLSCAASGFTFSWYKMVWVRQAPGKGLEWVSSIVPSGGITIYADSVKGRFTISRDNSKNTLYLQMNSLRAEDTAVYYCARVQQWLGRPYFDYWGQGTLVTVSS VL: DIQMTQSPLSLPVTPGEPASISCRSSQSLLHGNGYNYLDWYLQRPGQSPQLLIYSGSNRASGVPDRFSGSGSGTDFTLKISRVEAEDVGVYYCMQSLQSRTFGQGTKVEIK', '0.564 nM'),
  ('anti-HMG1 antibody S17 (antibody, V domains shown) VH: EVQLLESGGGLVQPGGSLRLSCAASGFTFSYYDMHWVRQAPGKGLEWVSRISPSGGYTWYADSVKGRFTISRDNSKNTLYLQMNSLRAEDTAVYYCTRGRYTSGWHEYFDPWGQGTLVTVSS VL: DIQMTQSPSSLSASVGDRVTITCRASQSIGTYLNWYQQKPGTAPKVLIYAASSLQSGVPSRFSGSGSGTDFTLTISSLQPEDFSTYYCQQSYNTPRTFGQGTKLEIK', '0.162 nM');

Continue with the binder presented below.
Item anti-HMG1 antibody S16 (antibody, V domains shown, also called ATCC PTA-6259) VH: EVQLLESGGGLVQPGGSLRLSCAASGFTFSWYSMLWVRQAPGKGLEWVSYISPSGGFTNYADSVKGRFTISRDNSKNTLYLQMNSLRAEDTAVYYCARWDYNSGWYYDHWGQGTLVTVSS VL: DIQMTQSPDTLSLSPGERATLSCRASQSVNSRNLAWYQQKPGQAPRLLIYGASTRATGIPDRFSGSVSGTEFTLTISSLQPDDFATYYCQQYNSYFTFGQGTKLEIK has what recorded IC50, inhibition of rHMG1 stimulated IL-6 release from human PBMCs?
0.56 nM
